system: P388 leukemia ip, CD2F1 mice, survival T/C; experiment: NCI In Vivo Anticancer Drug Screen. Data for tumor model P388 Leukemia (intraperitoneal) in CD2F1 (CDF1) mice; details: endpoint: median survival time; dose: 200.0 mg/kg/injection; schedule: Q04DX002 (ip); vehicle: Klucel (hydroxypropylcellulose) (HPC); higher = longer survival
Inconclusive results and toxic doses are left out.
measured_endpoint: T/C

{"compound": "CCCNC(=O)CCC(NS(=O)(=O)c1ccccc1)C(=O)O (stereo unspecified)", "T/C": "102 % of control"}

Quick request: T/C for each listed item, please.
1. COc1cc(Cc2n[nH]c(=S)[nH]c2=O)cc(OC)c1OC
2. O=S(=O)(Nc1ncccn1)c1ccc(NCc2c3ccccc3nc3ccccc23)cc1
3. NC(=S)n1nc(-c2ccccc2)c(N=Nc2ccccc2[N+](=O)[O-])c1-c1ccccc1

98 % of control
96 % of control
110 % of control

Quick request: T/C for each listed item, please.
1. CCOC(=O)/C=C/C(CO)OC(/C=C/C(=O)OCC)n1cnc2c(N)ncnc21 (stereo unspecified)
2. Cc1ccc(C(=O)C2(c3ccc(C)cc3)CCCCC2)cc1

1: 108 % of control; 2: 95 % of control

###

Please provide measured T/C for the entries that follow.
system: P388 leukemia ip, CD2F1 mice, survival T/C; assay: NCI In Vivo Anticancer Drug Screen. Data for tumor model P388 Leukemia (intraperitoneal) in CD2F1 (CDF1) mice; details: endpoint: median survival time; dose: 50.0 mg/kg/injection; schedule: Q01DX005 (ip); vehicle: Klucel (hydroxypropylcellulose) (HPC); higher = longer survival
Toxic doses and inconclusive results are not listed.

Sample records with T/C:
{"compound": "O=C1NC(=O)C2(CCCc3ccccc32)N1 (configuration not stated)", "T/C": "101 % of control"}
{"compound": "CCCCN(CCCC)C(=O)C(O)C(=O)N(CCCC)CCCC", "T/C": "104 % of control"}
{"compound": "COC(=O)/C=C(\\C(=O)OC)C1=C(N2CCCC2)CC(C)(C)CC1=O", "T/C": "102 % of control"}
{"compound": "c1ccc(/C2=N\\OCCCOc3ccccc32)cc1", "T/C": "88 % of control"}
{"compound": "Cc1nn(C)c(=S)[nH]c1=O", "T/C": "103 % of control"}
{"compound": "Cc1noc2c1NC(=O)OC(C)(C)C2", "T/C": "100 % of control"}
{"compound": "CC1(C(=O)O)NCCc2cc(O)c(O)cc21 (configuration not stated)", "T/C": "104 % of control"}
{"compound": "O=C1C(Cl)=C(Nc2ccc3c(c2NC2=C(Cl)C(=O)c4ccccc4C2=O)C(=O)c2ccccc2C3=O)C(=O)c2ccccc21", "T/C": "97 % of control"}
{"compound": "COC(=O)c1cccc2c1Oc1ccccc1S2", "T/C": "103 % of control"}
{"compound": "COc1ccccc1C(Nc1ccc([N+](=O)[O-])cc1)P(=O)(Oc1ccccc1)Oc1ccccc1 (configuration not stated)", "T/C": "95 % of control"}

Quick request: T/C for each listed item, please.
1. CCNC(=O)OCc1c(C)nc2n1CCS2
2. O=c1[nH]c(=O)n(C2OC(CF)C(O)C2O)cc1Br (configuration not stated)

1: 115 % of control; 2: 96 % of control

###

Please provide measured T/C for the entries that follow.
test system: P388 leukemia ip, CD2F1 mice, survival T/C; test: NCI In Vivo Anticancer Drug Screen. Data for tumor model P388 Leukemia (intraperitoneal) in CD2F1 (CDF1) mice; conditions: endpoint: median survival time; dose: 12.5 mg/kg/injection; schedule: Q01DX009 (ip); vehicle: saline; higher = longer survival
Inconclusive results and toxic doses are left out.

{"compound": "NCCNCC[OH2+].NCCNCC[OH2+].[Ni+2].[O-][Cl+3]([O-])([O-])[O-]", "T/C": "100 % of control"}
{"compound": "CCn1c(=O)c2c(ncn2C)n(C)c1=O", "T/C": "101 % of control"}

Quick request: T/C for each listed item, please.
1. CC([NH-])C(=O)O.[Cl][Pt][Cl] (stereo unspecified)
2. CCOP(=O)(OCC)C1CCCN2CCc3c([nH]c4ccccc34)C12 (stereo unspecified)
3. NC(=O)c1ccc([N+](=O)[O-])o1

["106 % of control", "98 % of control", "99 % of control"]

Quick request: T/C for each listed item, please.
1. ClCC(Br)CBr (stereo unspecified) (tested in a mixture with another compound)
2. COC(OC(CO)C(O)S(=O)(=O)O)C(O)S(=O)(=O)O (stereo unspecified)

1. 96 % of control
2. 105 % of control

Quick request: T/C for each listed item, please.
1. CN1CCN(N=Nc2ccccc2Cl)CC1
2. CCCCCCC(=O)/C=C/c1ccc(OC(=O)c2ccc(Cl)cc2)cc1
3. C=C(Cl)C[N+]12CN3CN(CN(C3)C1)C2
4. CC(OC(=O)c1ccccc1C(=O)O)c1ccccc1 (stereo unspecified)

1. 99 % of control
2. 94 % of control
3. 100 % of control
4. 91 % of control

###

System: P388 leukemia ip, CD2F1 mice, survival T/C
Experiment: NCI In Vivo Anticancer Drug Screen. Data for tumor model P388 Leukemia (intraperitoneal) in CD2F1 (CDF1) mice
Details: endpoint: median survival time; dose: 7.5 mg/kg/injection; schedule: Q01DX005 (ip); vehicle: Klucel (hydroxypropylcellulose) (HPC); higher = longer survival
Procedure: The antitumor activity of compounds was measured in mice bearing transplantable tumors. Survival or tumor size were measured and the results are expressed as the measurement made in the treated group (T) divided by the measurement made in the vehicle treated control group (C). The tumor model used in this assay is P388 Leukemia (intraperitoneal) in CD2F1 (CDF1) mice
Inconclusive results and toxic doses are left out.
Please provide measured T/C for the entries that follow.

Sample records with T/C:
{"molecule": "CC(C)CC1=C(C(=O)c2ccoc2)CC(C)C1 (centres undefined)", "T/C": "95 % of control"}
{"molecule": "CC(=O)/C(=C\\c1ccc([N+](=O)[O-])o1)C(=O)CCN(C)C", "T/C": "97 % of control"}

Quick request: T/C for each listed item, please.
1. Cc1[nH]c2ccc(N(C)C)cc2c(=O)c1CN(Cc1ccccc1)Cc1c(C)[nH]c2ccc(N(C)C)cc2c1=O
2. CC1=C(C)C(C#N)N(C)CC1 (centres undefined)

["94 % of control", "100 % of control"]

###

Please provide measured T/C for the entries that follow.
system: P388 leukemia ip, CD2F1 mice, survival T/C; experiment: NCI In Vivo Anticancer Drug Screen. Data for tumor model P388 Leukemia (intraperitoneal) in CD2F1 (CDF1) mice; conditions: endpoint: median survival time; dose: 200.0 mg/kg/injection; schedule: Q01DX009 (ip); vehicle: saline with Tween-80; higher = longer survival
Toxic doses and inconclusive results are not listed.

Sample records with T/C:
{"molecule": "Cc1ccccc1C(C)(C#N)Nc1ccccc1 (centres undefined)", "T/C": "113 % of control"}
{"molecule": "COc1ccc(OC)c(NC(=O)Oc2c(C)cc(Cl)cc2Br)c1", "T/C": "100 % of control"}
{"molecule": "CCCCOP(=O)(O)OCCCC.[V]", "T/C": "103 % of control"}

Quick request: T/C for each listed item, please.
1. COc1cc2c(cc1O)CCCC=C2C1CCCCc2cc(O)c(OC)cc21 (centres undefined)
2. CCN(CC)Cc1cc(N)cc(N=Nc2ccc3c(c2)c2ccccc2n3CC)c1O
3. c1cc2c(cc1CSCc1c(CSCc3ccc4c(c3)OCO4)c(CSCc3ccc4c(c3)OCO4)c(CSCc3ccc4c(c3)OCO4)c(CSCc3ccc4c(c3)OCO4)c1CSCc1ccc3c(c1)OCO3)OCO2
4. CC(C)(C)C1CCC(=O)C2(CCCC2)C1 (centres undefined)
5. COc1ccc([N+](=O)[O-])cc1NC(=O)N(C)Cc1ccco1
6. O=C1Cc2cccc3cccc1c23
7. Nc1nc(N)c2nc(Sc3ccc(Cl)cc3)c(=O)[nH]c2n1
8. COc1ccc(-c2cc(=O)c3ccc4c(O)cccc4c3o2)cc1

94 % of control
105 % of control
97 % of control
122 % of control
106 % of control
111 % of control
105 % of control
97 % of control

Quick request: T/C for each listed item, please.
1. O=C(NC(=O)C(F)(F)F)Nc1cccc(C(F)(F)F)c1
2. CCOC(=O)C(C(=O)OCC)c1c[n+]([O-])c2ccccc2c1[N+](=O)[O-]
3. NC(CC(C(=O)O)c1ccccc1)C(=O)O (centres undefined)
4. CCCCCCCCCCCCCCCCOc1ccc(-c2cc(Cl)c3cc(S(=O)(=O)F)ccc3n2)cc1S(=O)(=O)F
5. CCCCCCCCCCOC(=O)c1ccc(O)cc1

["94 % of control", "100 % of control", "94 % of control", "90 % of control", "97 % of control"]
